Tested on: SN12C renal
assay: NCI tumour cell line growth inhibition, 48 h
Property: TGI; scope: individual compounds
assay.metric: TGI

[[record]]
compound = "NC(CCCCNC(=O)CNC(=O)OCc1ccccc1)C(=O)NC(CCCCNC(=O)CNC(=O)OCc1ccccc1)C(=O)NC(CCCCNC(=O)CNC(=O)OCc1ccccc1)C(=O)NC(CCCCNC(=O)CNC(=O)OCc1ccccc1)C(=O)NC(CCCCNC(=O)CNC(=O)OCc1ccccc1)C(=O)NC(CCCCNC(=O)CNC(=O)OCc1ccccc1)C(=O)O (stereo not drawn)"
result_value = "> 75 µM"

[[record]]
compound = "Cn1c(=O)c2c(ncn2CCCCOc2ccc3c(c2)[n+]([O-])nc(N)[n+]3[O-])n(C)c1=O"
result_value = "> 100 µM"

[[record]]
compound = "COC(=O)c1cc(-c2cccn2C)c2c(c1C(=O)OC)c1ccccc1n2C"
result_value = "> 100 µM"

[[record]]
compound = "CN(C(=O)c1ccncc1)c1ccccc1"
result_value = "> 100 µM"

[[record]]
compound = "COC(C)(C)CCc1[nH]c2ccccc2c1CC(=O)NCCc1cncn1C"
result_value = "> 100 µM"

[[record]]
compound = "Cc1n[nH]c(=O)n1/N=C\\CC/C=N\\n1c(C)n[nH]c1=O"
result_value = "> 100 µM"

[[record]]
compound = "COc1cc2c(cc1OC)C(C)N(C)c1c-2c(OC(C)=O)cc2cc(OC)c(OC)cc12 (stereo not drawn)"
result_value = "> 46.2 µM"

[[record]]
compound = "COC(=O)C(F)C(Br)C(=O)OC (stereo not drawn)"
result_value = "30.9 µM"

